biological target: human SIRPαBIT (huSIRPαBIT), protein antigen (human) (UniProt P78324); assay: ELISA, antigen coated
Sequence (P78324 31-370): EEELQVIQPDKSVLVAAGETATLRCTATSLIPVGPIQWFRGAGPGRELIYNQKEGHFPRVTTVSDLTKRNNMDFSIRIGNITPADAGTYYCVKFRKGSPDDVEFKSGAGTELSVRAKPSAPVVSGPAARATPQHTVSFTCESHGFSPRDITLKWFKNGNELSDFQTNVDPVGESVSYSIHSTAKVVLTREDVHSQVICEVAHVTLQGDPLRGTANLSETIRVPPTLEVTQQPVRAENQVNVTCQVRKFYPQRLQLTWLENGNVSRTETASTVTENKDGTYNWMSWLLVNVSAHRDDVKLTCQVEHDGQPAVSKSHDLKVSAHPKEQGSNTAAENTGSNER
readoutName: EC50 (ng/mL)
Reply with just the number (in ng/mL).

Some binders with recorded EC50:
{"columns": ["binder", "EC50 (ng/mL)"],
 "data": [
  ["29AM4-5huIgG1LALA (antibody, V domains shown, HAVT20 leader left out) VH: EVQLVESGGGLVQPGGSLRLSCAASGFNISYYFIHWVRQAPGKGLEWVASVYSSFGYTYYADSVKGRFTISADTSKNTAYLQMNSLRAEDTAVYYCARFTFPGLFDGFFGAYLGSLDYWGQGTLVTVSS VL: DIQMTQSPSSLSASVGDRVTITCRASQSVSSAVAWYQQKPGKAPKLLIYSASSLYSGVPSRFSGSRSGTDFTLTISSLQPEDFATYYCQQAVNWVGALVTFGQGTKVEIKR", 9],
  ["anti-SIRPα antibody 7 (antibody, human IgG1, kappa, L234A L235A, V domains shown, Chimeric: rabbit variable regions on human IgG1 LALA / kappa; also called chimeric antibody 7) VH: RSVEESGGRLVTPGTPLTLTCTVSGFSLSSHGISWVRQAPGKGLEYIGTIGTGVITYFASWAKGRFTGSKTSTTVDLKITSPTTEDTATYFCARGSAWNDPFDPWGPGTLVTVSS VL: ALVMTQTPASVSAAVGGTVTTKCQASQSVYGNNDLAWYQHKPGQPPKLLIYLASTLATGVPSRFSGSGSGTQFTLTITGVQSDDAATYYCLGGGDDEADNVFGGGTEVVVKR", 20]
]}

Quick one: EC50 for 12C4huIgG1LALA (antibody, V domains shown, HAVT20 leader left out; also called 12C4LALA; huIgG112C4LALA) VH: EVKLEESGGGLMQPGGSMKLSCVASGFTFSNYWMNWVRQSPEKGLEWVAEIRLKSNNYATHYAESVKGRFTISRDDSKSSVYLQMNNLRAEDTGIYYCIRDYDYDAYFDYWGQGTTLTVSS VL: DIVLTQSPASLAVSLGQRATISCRASKSVSTSGYNYMYWYQQKPGQPPKLLIYLASNLESGVPARFSGSGSGTDFTLNIHPVEEEDAATYYCQHSGELPYTFGGGTKLEIKR ?
5
